These measurements were taken from patent US20240209088A1.

Provide the recorded EC50 for the entries that follow.
# target_desc: T1, full-length human CD4 on cells (human, UniProt P01730 26-458)
# T1 construct: whole, on cells; Stably expressed (CHO-hCD4, HEK293-hCD4) or endogenous (PBMCs, human CD4+ cells from blood, HPB-ALL, T cell lines); also called hCD4; cell-resident hCD4
# test_description: flow cytometry on cells expressing hCD4
One number for each entry, in nM.

1. CD4-Nb3 (VHH, Unlabeled, expressed in E. coli) VHH: HVQLVESGGGLVQPGGSLRLSCAVSGFALEYYAIGWFRQAPGKERERVACMSASGGVINYSESVKGRFTISRDNAKNTVYLQMNTLKPEDTAVYYCAAEKAYYGSSWAECYLMMDYWGKGTLVTVSS	533
2. CD4-Nb4 (VHH, Unlabeled, expressed in E. coli) VHH: EVQLQESGGALAQPGGSLRLSCAVSGFTFGTYGMGWLRQAPGKGREFVAAINWIHGGEIYADSVKGRFTISKDNAKNTLYLQMDSLKPEDTAVYYCAARSGTSLYTGVDEYQYWGQGTQVTVSS	7360

Look at each binder and report its EC50.
1. CD4-Nb2 (VHH, Unlabeled, expressed in E. coli) VHH: EVQLVESGGGSVQPGGSLRLSCGASGFDVDYYAIGWFRQAPGKEREGVSCIASSDGSTYYADSVKGRFTISRDNAKNTVYLQMNSLKPEDTAVYYCAADATCPYYCSGSVCYLETGMDYWGEGTLVTVSS
2. CD4-Nb1 (VHH, Unlabeled, expressed in E. coli; also called non-mutated CD4-Nb1) VHH: EVQLVESGGGLVQPGGSLRLSCAASGFTFSKLAMSWHREPPGKGREWLADIDSSGDTTDYLASVKGRFTISRDNAKNTLYLQMDSLKSEDTGVYYCASREDPPGYWGQGTQVTVSS

**A:**
[0.73, 0.74]
